- Test system: Human alphaherpesvirus 1
- protocol_description: Antiviral activity against HSV-1F ATCC 733 infected in african green monkey Vero cells assessed as inhibition of virus yield at 20 ug/ml after 3 days by MTT assay
- Type: functional
- condition_description: Human alphaherpesvirus 1, ATCC 733, Vero, 72 h
Reported inhibition at 20 µg/mL values for the following molecules.
Report the figure in % without appending any unit label.

Reference set (4 entries):
Nc1nc2c(ncn2COCCO)c(=O)[nH]1	94
O=C(NCCO)c1c(N2CCCCC2)cc(-c2ccccc2)oc1=O	89
O=C(NCCO)c1c(N2CCCC2)cc(-c2ccccc2)oc1=O	70
O=C(Nc1ccccc1)c1c(N2CCCC2)cc(-c2ccccc2)oc1=O	79

inhibition at 20 µg/mL in this record for "Cc1ccc(NC(=O)c2c(N3CCCC3)cc(-c3ccccc3)oc2=O)cc1" : 62
